# Study target: EGFR on EGFR positive non-small cell lung cancer cells NCI-H1650 (UniProt P00533 25-1210)
# Assay: cell-based or functional assay
Please assign class 0 whenever H1650 GFP Flourescence EC50 is at or above 2 mg/L, and class 1 whenever it is below.

{"Binder": "AbB-KZ (antibody, human IgG1, kappa, V domains shown, synthon KZ on reduced interchain cysteines; average DAR 1.9 per ADC) VH: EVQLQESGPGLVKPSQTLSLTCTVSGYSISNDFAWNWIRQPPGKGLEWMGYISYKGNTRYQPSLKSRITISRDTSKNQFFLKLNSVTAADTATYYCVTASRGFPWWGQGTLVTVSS VL: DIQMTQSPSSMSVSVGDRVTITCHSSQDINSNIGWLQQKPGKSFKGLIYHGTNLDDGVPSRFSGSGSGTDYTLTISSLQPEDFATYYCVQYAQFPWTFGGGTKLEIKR", "Category": "class 0"}
{"Binder": "AbA-KZ (antibody, human IgG1, kappa, V domains shown, synthon KZ on reduced interchain cysteines; average DAR 2 per ADC) VH: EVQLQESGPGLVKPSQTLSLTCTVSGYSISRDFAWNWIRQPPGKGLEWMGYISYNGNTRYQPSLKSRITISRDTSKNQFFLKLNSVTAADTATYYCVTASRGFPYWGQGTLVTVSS VL: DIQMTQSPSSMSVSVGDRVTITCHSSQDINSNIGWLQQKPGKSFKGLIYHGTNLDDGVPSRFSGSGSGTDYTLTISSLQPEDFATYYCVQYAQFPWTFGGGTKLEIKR", "Category": "class 0"}
{"Binder": "AbG-LB (antibody, human IgG1, kappa, V domains shown, synthon LB on reduced interchain cysteines; average DAR 2.5 per ADC) VH: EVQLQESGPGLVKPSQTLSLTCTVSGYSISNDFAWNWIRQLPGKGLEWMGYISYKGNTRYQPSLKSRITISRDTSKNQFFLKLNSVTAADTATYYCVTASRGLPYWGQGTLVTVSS VL: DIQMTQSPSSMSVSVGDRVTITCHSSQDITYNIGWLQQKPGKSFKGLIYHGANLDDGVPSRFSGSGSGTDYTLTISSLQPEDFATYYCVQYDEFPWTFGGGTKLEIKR", "Category": "class 1"}
{"Binder": "AbK-AAD (antibody, human IgG1, kappa, V domains shown, synthon AAD on reduced interchain cysteines; average DAR 2.8 per ADC) VH: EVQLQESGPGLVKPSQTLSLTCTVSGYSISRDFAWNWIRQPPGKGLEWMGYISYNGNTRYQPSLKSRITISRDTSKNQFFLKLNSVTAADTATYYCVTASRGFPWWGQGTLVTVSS VL: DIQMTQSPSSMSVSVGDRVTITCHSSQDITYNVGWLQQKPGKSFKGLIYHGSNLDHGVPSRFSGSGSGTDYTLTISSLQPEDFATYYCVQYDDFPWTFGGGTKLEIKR", "Category": "class 1"}
{"Binder": "AbA-CZ (antibody, human IgG1, kappa, V domains shown, synthon CZ on reduced interchain cysteines; average DAR 3.2 per ADC) VH: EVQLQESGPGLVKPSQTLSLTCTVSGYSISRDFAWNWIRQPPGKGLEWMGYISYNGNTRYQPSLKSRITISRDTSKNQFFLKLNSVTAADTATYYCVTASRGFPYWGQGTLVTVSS VL: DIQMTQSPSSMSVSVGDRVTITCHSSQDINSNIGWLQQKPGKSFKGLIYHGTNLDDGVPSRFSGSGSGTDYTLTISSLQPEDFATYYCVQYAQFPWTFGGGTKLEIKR", "Category": "class 1"}
{"Binder": "AbB-WD (antibody, human IgG1, kappa, V domains shown, synthon WD on reduced interchain cysteines; average DAR 1.6 per ADC) VH: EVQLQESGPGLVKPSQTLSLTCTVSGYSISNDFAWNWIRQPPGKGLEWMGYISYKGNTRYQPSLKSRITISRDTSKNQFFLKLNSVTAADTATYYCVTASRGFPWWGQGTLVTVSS VL: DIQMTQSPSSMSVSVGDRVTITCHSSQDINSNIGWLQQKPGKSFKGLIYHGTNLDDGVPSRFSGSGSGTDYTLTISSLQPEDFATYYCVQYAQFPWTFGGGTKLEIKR", "Category": "class 1"}
{"Binder": "AbG-XW (antibody, human IgG1, kappa, V domains shown, synthon XW on reduced interchain cysteines; average DAR 3.7 per ADC) VH: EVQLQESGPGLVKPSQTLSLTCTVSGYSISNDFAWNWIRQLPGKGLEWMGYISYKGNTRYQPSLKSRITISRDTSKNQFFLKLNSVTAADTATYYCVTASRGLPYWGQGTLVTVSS VL: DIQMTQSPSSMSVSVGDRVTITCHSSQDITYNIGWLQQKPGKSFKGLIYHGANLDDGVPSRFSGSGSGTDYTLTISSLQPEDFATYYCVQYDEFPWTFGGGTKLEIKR", "Category": "class 0"}
{"Binder": "AbB-AAD (antibody, human IgG1, kappa, V domains shown, synthon AAD on reduced interchain cysteines; average DAR 2.7 per ADC) VH: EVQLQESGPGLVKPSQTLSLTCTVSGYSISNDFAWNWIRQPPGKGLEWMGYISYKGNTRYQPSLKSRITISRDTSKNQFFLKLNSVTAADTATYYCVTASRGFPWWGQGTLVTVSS VL: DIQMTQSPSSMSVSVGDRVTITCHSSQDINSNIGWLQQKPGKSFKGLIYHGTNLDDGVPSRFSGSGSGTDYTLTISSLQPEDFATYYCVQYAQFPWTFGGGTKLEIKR", "Category": "class 1"}
{"Binder": "AbK-TV (antibody, human IgG1, kappa, V domains shown, synthon TV on reduced interchain cysteines; average DAR 2.4 per ADC) VH: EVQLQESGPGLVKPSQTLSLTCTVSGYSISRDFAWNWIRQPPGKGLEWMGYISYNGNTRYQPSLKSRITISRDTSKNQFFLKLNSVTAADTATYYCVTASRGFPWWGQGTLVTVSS VL: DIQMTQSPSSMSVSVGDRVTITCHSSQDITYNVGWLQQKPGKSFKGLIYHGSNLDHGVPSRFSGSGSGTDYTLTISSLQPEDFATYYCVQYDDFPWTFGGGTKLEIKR", "Category": "class 1"}
{"Binder": "AbB-SE (antibody, human IgG1, kappa, V domains shown, synthon SE on reduced interchain cysteines; average DAR 2.2 per ADC) VH: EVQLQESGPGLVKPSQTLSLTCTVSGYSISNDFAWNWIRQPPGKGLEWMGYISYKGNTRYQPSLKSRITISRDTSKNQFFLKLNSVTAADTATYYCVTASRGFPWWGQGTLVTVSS VL: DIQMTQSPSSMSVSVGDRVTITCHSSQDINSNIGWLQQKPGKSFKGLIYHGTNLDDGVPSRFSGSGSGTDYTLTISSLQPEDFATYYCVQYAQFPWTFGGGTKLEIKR", "Category": "class 0"}

Values were extracted from patent US20240199745A1.
